molecular target: Sphingosine 1-phosphate receptor 1 (Homo sapiens); experiment: Agonist activity at human S1P1 receptor expressed in CHO cells assessed as increase in calcium flux by aequorin-derived luminescence assay
Sequence (P21453 whole entry): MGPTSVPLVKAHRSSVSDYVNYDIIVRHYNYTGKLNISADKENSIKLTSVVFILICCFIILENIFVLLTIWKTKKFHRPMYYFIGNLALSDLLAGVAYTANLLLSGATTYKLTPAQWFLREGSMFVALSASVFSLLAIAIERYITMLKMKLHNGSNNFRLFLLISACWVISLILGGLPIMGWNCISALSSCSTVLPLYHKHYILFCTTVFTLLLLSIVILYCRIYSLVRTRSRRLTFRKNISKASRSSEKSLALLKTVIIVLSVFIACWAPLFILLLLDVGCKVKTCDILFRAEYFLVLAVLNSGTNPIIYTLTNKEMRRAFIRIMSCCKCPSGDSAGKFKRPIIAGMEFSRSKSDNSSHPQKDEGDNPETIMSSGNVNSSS
measurement_type: EC50 (nM)
Give bare numbers, in nM.

Solved cases below.
Entry CCc1cccc(Cl)c1CSc1ccc2c(c1)OCC21CCN(CCC(=O)O)CC1.Cl , tested on Sphingosine 1-phosphate receptor 1 (Homo sapiens), has a reported EC50 of 126

Reading of EC50 for CC(CN1CCC2(CC1)COc1cc(OCc3c(Cl)cccc3Cl)ccc12)C(=O)O (stereo not given) with Sphingosine 1-phosphate receptor 1 (Homo sapiens): 1260

Form field EC50 for item Cl.O=C(O)CCN1CCC2(CC1)COc1cc(OCc3c(F)cccc3Cl)ccc12 on Sphingosine 1-phosphate receptor 1 (Homo sapiens): 6310

***
// EC50 (Sphingosine 1-phosphate receptor 1 (Homo sapiens)) for O=C(O)CCN1CCC2(CC1)COc1cc(OCc3c(Cl)cccc3C(F)(F)F)ccc12 = 316

---

Kindly state half-life for each of the entries shown.
test: Half life in human microsomes assessed per mg protein; format: ADME, Microsome
Numbers only, in h.

Recorded results for 3 compounds are shown here.
The reported half-life of the compound CC(C)c1cccc(Cl)c1COc1ccc2c(c1)OCC21CCN(CCC(=O)O)CC1.Cl was 11.2

half-life reading for Cl.O=C(O)CCN1CCCC2(COc3cc(OCc4c(Cl)cccc4Cl)ccc32)C1 (stereo not given) : 7.57

// CCc1cccc(Cl)c1COc1ccc2c(c1)OCC21CCN(CC(C)C(=O)O)CC1.Cl (stereo not given) : half-life value = 3.8

Hey, can you go through the list below and give me half-life for every item?
1. Cl.O=C(O)CCN1CCC2(CC1)COc1c2ccc(OCc2c(Cl)cccc2Cl)c1F
2. CCc1cccc(Cl)c1CSc1ccc2c(c1)OCC21CCN(CCC(=O)O)CC1.Cl
3. Cl.O=C(O)CCN1CCC2(CC1)COc1cc(C#Cc3ccccc3)ccc12
4. CCc1cccc(Cl)c1COc1ccc2c(c1)OCC21CCCN(CCC(=O)O)C1.Cl (stereo not given)
5. Cl.O=C(O)CCN1CCC2(CC1)COc1cc(OCc3c(Cl)cccc3Cl)ccc12

3.55
0.55
2.78
6.82
7.45

Required: half-life, one value per compound below.
1. Cl.O=C(O)CCN1CCC2(CC1)COc1cc(OCc3c(F)cccc3Cl)ccc12
2. CCc1cccc(CC)c1COc1ccc2c(c1)OCC21CCN(CCC(=O)O)CC1

[8.42, 25.2]

---

Assign solubility kinetic to each entry below.
test: Aqueous kinetic solubility of the compound by turbidimetric method; assay type: physicochemical; details: buffer; read-out: Kinetic_solubility

Record excerpt, results attached:
Reported solubility kinetic of CCc1cccc(CC)c1COc1ccc2c(c1)OCC21CCN(CCC(=O)O)CC1 : ≥ 100 µM

For Cl.O=C(O)CCN1CCC2(CC1)COc1cc(OCc3c(Cl)cccc3Cl)ccc12 the compound record lists solubility kinetic as ≥ 100 µM

Entry Cl.O=C(O)CCN1CCC2(CC1)COc1cc(C#Cc3ccccc3)ccc12 — recorded solubility kinetic = 100 µM

// sample Cl.O=C(O)CN1CCC2(CC1)COc1cc(S(=O)(=O)Cc3c(Cl)cccc3Cl)ccc12 , its solubility kinetic was ≥ 100 µM

Record summary for CCCCCCCCc1ccc(CCC(N)(CO)CO)cc1 : reported solubility kinetic = 1 to 6.5 µM

Can you give me solubility kinetic for all of these, one by one?
1. Cl.O=C(O)CCN1CCC2(CC1)COc1cc(OCc3cc(Cl)nc(Cl)c3)ccc12
2. CCc1cccc(Cl)c1CSc1ccc2c(c1)OCC21CCN(CCC(=O)O)CC1.Cl
3. Cl.O=C(O)CCN1CCCC2(COc3cc(OCc4c(Cl)cccc4Cl)ccc32)C1 (stereo unspecified)

1: > 100 µM; 2: 30 to 100 µM; 3: ≥ 100 µM

# map each compound to its solubility kinetic
1. O=C(O)C(F)(F)F.O=C(O)CCN1CCC2(CC1)COc1cc(OCc3ccccc3Cl)ccc12
2. CCc1cccc(Cl)c1COc1ccc2c(c1)OCC21CCN(CC(C)C(=O)O)CC1.Cl (stereo unspecified)

30 to 100 µM
≥ 100 µM

Quick batch: solubility kinetic for everything below.
1. Cl.O=C(O)CCN1CCC2(CC1)COc1cc(SCc3c(Cl)cccc3Cl)ccc12
2. Cl.O=C(O)CCN1CCC2(CC1)COc1cc(OCc3c(F)cccc3Cl)ccc12
3. CCc1cccc(Cl)c1COc1ccc2c(c1)OCC21CCCN(CCC(=O)O)C1.Cl (stereo unspecified)
4. Cl.O=C(O)CCN1CCC2(CC1)COc1cc(/C=C/c3c(Cl)cccc3Cl)ccc12
5. Cl.O=C(O)CCN1CCC2(CC1)COc1c2ccc(OCc2c(Cl)cccc2Cl)c1F
6. CC(C)c1cccc(Cl)c1COc1ccc2c(c1)OCC21CCN(CCC(=O)O)CC1.Cl

1: ≥ 100 µM; 2: 30 to 100 µM; 3: ≥ 100 µM; 4: 30 to 100 µM; 5: 30 to 100 µM; 6: 30 to 100 µM

---

molecular target: Sphingosine 1-phosphate receptor 3 (Homo sapiens, UniProt Q99500); experiment: Agonist activity at human S1P3 receptor expressed in CHO cells assessed as increase in calcium flux by aequorin-derived luminescence assay
Sequence (Q99500 whole entry): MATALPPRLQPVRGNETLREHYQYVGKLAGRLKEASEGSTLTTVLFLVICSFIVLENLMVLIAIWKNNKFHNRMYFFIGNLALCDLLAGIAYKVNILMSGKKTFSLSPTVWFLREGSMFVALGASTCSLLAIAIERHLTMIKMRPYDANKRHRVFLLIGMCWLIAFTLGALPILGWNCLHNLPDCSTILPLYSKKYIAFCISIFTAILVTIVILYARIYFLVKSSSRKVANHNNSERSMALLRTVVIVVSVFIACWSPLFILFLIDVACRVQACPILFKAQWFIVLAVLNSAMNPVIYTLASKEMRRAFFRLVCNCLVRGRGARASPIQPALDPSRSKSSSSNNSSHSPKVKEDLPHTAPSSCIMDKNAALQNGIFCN
pEC50: −log10 of the molar value.
I'd appreciate it if you could supply pEC50 values for the items below.

Report pEC50 for each item below.
1. Cl.O=C(O)CCN1CCC2(CC1)COc1c2ccc(OCc2c(Cl)cccc2Cl)c1F
2. CCCc1cccc(Cl)c1COc1ccc2c(c1)OCC21CCN(CCC(=O)O)CC1
3. Cl.O=C(O)CN1CCC2(CC1)COc1cc(S(=O)(=O)Cc3c(Cl)cccc3Cl)ccc12
4. O=C(O)CN1CCC2(CC1)COc1cc(OCc3c(Cl)cccc3Cl)ccc12
5. O=C(O)C(F)(F)F.O=C(O)CCN1CCC2(CC1)COc1cc(OCc3ccccc3Cl)ccc12
6. CCCCCCCCc1ccc(CCC(N)(CO)CO)cc1

1: < 5.00; 2: 5.70; 3: < 5.00; 4: < 6.00; 5: < 4.50; 6: 5.60

---

target: Sphingosine 1-phosphate receptor 1 (Homo sapiens); experiment: Agonist activity at human S1P1 receptor expressed in CHO cells assessed as increase in calcium flux by aequorin-derived luminescence assay
pEC50: −log10 of the molar value.
Label scheme for pEC50: lower than 6 is -1, 6 and above is 1.

Worked cases, answers included:
Would you say O=C(O)CCN1CCC2(CC1)COc1cc(OCc3cc(Cl)ccc3Cl)ccc12 shows pEC50 at minimum 6?
-1

State whether the measured pEC50 reaches 6, counting equality as reaching it, for Cc1cc(Cl)c(COc2ccc3c(c2)OCC32CCN(CCC(=O)O)CC2)c(Cl)c1
1

# check: pEC50 of O=C(O)CCN1CCC2(CC1)COc1cc(OCCCc3ccccc3)ccc12 is greater than or equal to 6
-1

Please tell me: is the molecule O=C(O)CCN1CCC2(CC1)COc1cc(OCc3cccc(Cl)c3)ccc12 at or over 6 in terms of pEC50?
-1

Further cases:
Kindly determine if pEC50 recorded for Cl.O=C(O)CCN1CCC2(CC1)COc1cc(OCc3cc(Cl)nc(Cl)c3)ccc12 is above or exactly 6.
-1

Dear colleague, could you confirm whether CCc1cccc(Cl)c1COc1ccc2c(c1)OCC21CCCN(CCC(=O)O)C1.Cl (stereo unspecified) has pEC50 at or above 6?
-1

Quick check: does CCCc1cccc(Cl)c1COc1ccc2c(c1)OCC21CCN(CCC(=O)O)CC1 have pEC50 greater than or equal to 6?
-1

Could you tell me if the measured pEC50 of O=C(O)CCN1CCC2(CC1)COc1cc(OCc3cccc(Cl)c3Cl)ccc12 reaches 6 or more?
-1

In plain terms: is recorded pEC50 at least 6 for O=P(O)(O)OCCN1CCC2(CC1)COc1cc(OCc3c(Cl)cccc3Cl)ccc12 ?
1

Check the entry Cl.O=C(O)CCN1CCC2(CC1)COc1cc(OCc3c(Cl)cccc3Cl)ccc12 : does pEC50 equal or exceed 6?
-1

---

Answer each item with its documented microsomal CLint.
experiment: Intrinsic clearance in human microsomes assessed per mg protein; type: ADME, Microsome
Please give the number followed by its unit.

Consider the following illustrative entries.
Notebook: Cl.O=C(O)CCN1CCC2(CC1)COc1cc(SCc3c(Cl)cccc3Cl)ccc12 , microsomal CLint read as 21 µL/min/mg

The compound listed as Cl.O=C(O)CCN1CCC2(CC1)COc1c2ccc(OCc2c(Cl)cccc2Cl)c1F shows microsomal CLint equal to 6.5 µL/min/mg

Please state microsomal CLint for every compound in the list that follows.
1. Cl.O=C(O)CCN1CCC2(CC1)COc1cc(C#Cc3ccccc3)ccc12
2. Cl.O=C(O)CCN1CCC2(CC1)COc1cc(OCc3c(Cl)cccc3Cl)ccc12
3. CC(C)c1cccc(Cl)c1COc1ccc2c(c1)OCC21CCN(CCC(=O)O)CC1.Cl
4. Cl.O=C(O)CCN1CCC2(CC1)COc1cc(/C=C/c3c(Cl)cccc3Cl)ccc12
5. CCc1cccc(Cl)c1CSc1ccc2c(c1)OCC21CCN(CCC(=O)O)CC1.Cl
6. O=C(O)C(F)(F)F.O=C(O)CCN1CCC2(CC1)COc1cc(OCc3ccccc3Cl)ccc12
7. Cl.O=C(O)CCN1CCC2(CC1)COc1cc(OCc3cc(Cl)nc(Cl)c3)ccc12

["8.3 µL/min/mg", "3.1 µL/min/mg", "2.1 µL/min/mg", "0.76 µL/min/mg", "42 µL/min/mg", "9.1 µL/min/mg", "13.9 µL/min/mg"]

Field: microsomal CLint. Fill in for each record below.
1. CCc1cccc(Cl)c1COc1ccc2c(c1)OCC21CCCN(CCC(=O)O)C1.Cl (centres undefined)
2. Cl.O=C(O)CCN1CCC2(CC1)COc1cc(OCc3c(F)cccc3Cl)ccc12
3. CCc1cccc(CC)c1COc1ccc2c(c1)OCC21CCN(CCC(=O)O)CC1
4. CCc1cccc(Cl)c1COc1ccc2c(c1)OCC21CCN(CC(C)C(=O)O)CC1.Cl (centres undefined)
5. Cl.O=C(O)CCN1CCCC2(COc3cc(OCc4c(Cl)cccc4Cl)ccc32)C1 (centres undefined)

1: 3.4 µL/min/mg; 2: 2.7 µL/min/mg; 3: 0.92 µL/min/mg; 4: 6.1 µL/min/mg; 5: 3.1 µL/min/mg
